Cited source: the supplement of paper PMC10065799

target.system: c-Src SH2;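 also: peptide library displayed on the E. coli surface as eCPX fusions, selected cells deep-sequenced, score is each peptide's frequency after selection divided by its frequency in the input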
assay.comment: SH2 binding enrichment of the phosphorylated peptide, bacterial display (enrichment ratio); higher = better substrate or ligand; peptides without Tyr show the background
parameter.measured: SH2 binding enrichment

- FGRTFYNQAIM [MCCC2_Y196]: 0.625

a: TGYRPYVCPFD [YY1_Y383_D380Y]
b: RQNQEYEILLD [KRT39_Y379]
c: ADRNHYRRYPR [YBX1_Y145]
Task field, ranking: reported SH2 binding enrichment, descending order. Quick reminder: the answer is the labels in the order asked.
b, a, c
(b: 1.21, a: 0.611, c: 0.403)

###

target.system: EPHB2 (UniProt P29323)
Sequence (P29323 whole entry, looked up): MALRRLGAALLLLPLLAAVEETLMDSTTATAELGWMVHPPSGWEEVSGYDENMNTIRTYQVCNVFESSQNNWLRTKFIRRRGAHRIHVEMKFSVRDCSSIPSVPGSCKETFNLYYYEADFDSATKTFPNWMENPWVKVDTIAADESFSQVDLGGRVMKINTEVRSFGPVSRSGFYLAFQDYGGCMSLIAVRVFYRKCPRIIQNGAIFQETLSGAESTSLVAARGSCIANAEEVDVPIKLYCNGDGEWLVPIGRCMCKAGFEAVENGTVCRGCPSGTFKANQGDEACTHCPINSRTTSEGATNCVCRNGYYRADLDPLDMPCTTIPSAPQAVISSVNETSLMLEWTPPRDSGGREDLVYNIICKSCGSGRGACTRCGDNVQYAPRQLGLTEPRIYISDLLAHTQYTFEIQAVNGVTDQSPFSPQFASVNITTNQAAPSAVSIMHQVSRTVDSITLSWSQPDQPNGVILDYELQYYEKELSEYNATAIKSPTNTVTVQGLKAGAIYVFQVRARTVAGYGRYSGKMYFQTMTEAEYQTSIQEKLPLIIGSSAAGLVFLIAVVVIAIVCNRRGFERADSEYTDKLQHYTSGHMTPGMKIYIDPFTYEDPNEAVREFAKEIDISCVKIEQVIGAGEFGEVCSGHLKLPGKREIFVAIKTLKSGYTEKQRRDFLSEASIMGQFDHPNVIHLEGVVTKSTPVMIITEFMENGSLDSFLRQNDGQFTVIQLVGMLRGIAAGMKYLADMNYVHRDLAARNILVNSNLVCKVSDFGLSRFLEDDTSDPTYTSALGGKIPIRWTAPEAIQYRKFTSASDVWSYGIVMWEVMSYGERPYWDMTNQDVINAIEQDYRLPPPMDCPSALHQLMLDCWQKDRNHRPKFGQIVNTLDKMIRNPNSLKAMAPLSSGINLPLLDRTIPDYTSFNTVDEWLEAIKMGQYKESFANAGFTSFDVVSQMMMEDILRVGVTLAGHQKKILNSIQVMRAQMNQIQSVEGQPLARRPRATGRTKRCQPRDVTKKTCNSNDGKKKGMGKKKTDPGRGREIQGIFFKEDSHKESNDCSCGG
assay.comment: phosphorylation enrichment, bacterial display (enrichment ratio); higher = better substrate or ligand; peptides without Tyr show the background
parameter.measured: phosphorylation enrichment
Just the number, please, no unit after it.

// below: answered sequences
- KFACSYTPVKA [FLNB_Y708_T703K_YF]: 0.502
- LGPDGYSTVDR [ARVCF_Y901]: 0.594
- LEAVSYSSPFA [RNLS_Y190_R193P_YF]: 0.908
- IMITDYLPLFR [INSR_Y87_L89P]: 0.651

Provide measured phosphorylation enrichment value, entry: MTRDIYETDYY [INSR_Y1185]
1.34

Provide measured phosphorylation enrichment value, entry: FTAVGYHKHFT [NOMO1_Y1137_I1141F]
0.366

Provide measured phosphorylation enrichment value, entry: TFLRTYTDTMQ [TSPAN7_Y124_A127T]
0.491

Provide measured phosphorylation enrichment value, entry: KEAALYPHLPP [SQSTM1_Y383]
0.373

Provide measured phosphorylation enrichment value, entry: GSETPYMDRTP [ESS2_Y335_V336M]
0.413

Provide measured phosphorylation enrichment value, entry: RELGEYPLAEF [ALDH1A3_Y492_A493P_YF]
0.645

Provide measured phosphorylation enrichment value, entry: DRLASYLDKAR [KRT14_Y129_V133A]
0.324

Provide measured phosphorylation enrichment value, entry: AHAGEYGAGAL [HBA1_Y25_E28G]
0.434

Provide measured phosphorylation enrichment value, entry: IKELTYQTEED [MYH7_Y1852]
0.612

Provide measured phosphorylation enrichment value, entry: QGIIIYRAAYF [SLC25A4_Y187]
0.767
